meta.source: PubChem BioAssay (NCI)

Test system: A549 NSCLC
Method description: NCI tumour cell line growth inhibition, 48 h
Entries annotated with measured TGI

The examples below pair each entry with its known result.
Molecule	TGI
CC(=O)NC(CCCOC(C)=O)C(=O)NC(CCCOC(C)=O)C(=O)NC(CCCOC(C)=O)C(=O)NC(Cc1ccc([N+](=O)[O-])cc1)C(=O)NCC(=O)OCc1ccccc1 (stereo unspecified)	> 100 µM
O=C1c2ccccc2-n2c1nc1cc(Cl)ccc1c2=O	> 100 µM
O=C(Nn1c(-c2ccccc2)nc2ccccc2c1=O)c1ccc(O)cc1	> 100 µM

Could you please provide reported TGI for Cc1csc(-c2ccc3c(c2)COC3(CCCN(C)C)c2ccc(F)cc2)c1 (stereo unspecified) ? Thanks!
4.24 µM

Tell me TGI reported for CCN1C(=O)C(N=[N+]=[N-])(c2ccccc2)C(=O)c2ccccc21 (stereo unspecified)
> 100 µM

Please give the documented TGI of O=C1CCCCCCCCCCC1CN(Cc1ccccc1)Cc1ccccc1 (stereo unspecified)
> 100 µM

For the molecule CC1=C(c2ccc(C)cc2)NC(=S)C(C)C(c2ccc(C)cc2)=N1 (stereo unspecified) , report TGI.
> 100 µM

Look up TGI of C/C=C(\C)C(=O)OC1C2C(C)C(=O)OC2C(O)C(C)C2C=CC(=O)C21C (stereo unspecified) and report it.
61.3 µM

Answer with the recorded TGI of Cc1ccc2nc(CC(=O)c3ccc4ccccc4c3)c(=O)[nH]c2c1 only.
> 100 µM

Item Cc1cccc2c1ccc1c3occ(C)c3c(=O)oc21 : provide TGI
> 100 µM

Identify measured TGI associated with CCCCC1=CC1(C#N)[N+](=O)[O-] (stereo unspecified)
> 100 µM

Please give the documented TGI of Nc1ccc(-c2nc3ccc(Cc4ccc5nc(-c6ccc(N)cc6)oc5c4)cc3o2)cc1
> 100 µM

For the molecule N#Cc1nc(Nc2ccc(Cl)cc2)sc1N , give its reported TGI.
> 67.1 µM

In one line, give reported TGI of the entry CCc1cccc(CC)c1NC(=O)c1ccn2c1CCc1cnc(Nc3ccc(N4CCN(C)CC4)cc3OC)nc1-2 .
42 µM

State, in one line, measured TGI of O=c1[nH]c(=O)n(C2OC(CO)C(O)C2O)cc1OCc1ccccc1 (stereo unspecified)
> 100 µM

Note TGI for the molecule shown: COc1ccc(C(=O)C(CC2C(=O)CC(C)(C)C(C(=O)C(=O)Nc3c(C)cccc3C)C2=O)c2ccc(OC)cc2)cc1 (stereo unspecified)
> 100 µM

Specify reported TGI for the molecule shown: O=C1C(Cl)C(c2cccc(Br)c2)N1c1c(O)c(Cl)cc(Br)c1Cl (stereo unspecified)
40 µM

Tell me TGI reported for COc1ccc(OC)c(-c2cc(C(=O)O)c3cc4ccccc4cc3n2)c1
> 100 µM

State, in one line, measured TGI of N#C/C(=C\c1ccc([N+](=O)[O-])s1)c1nc2cc(Br)ccc2s1
> 100 µM

Consider the molecule CN/N=C(/CC(=O)c1sc(-n2nc(-c3ccccc3)cc2-c2ccccc2)nc1C)C(=O)Nc1ccc(Cl)c(Cl)c1 . State its measured TGI.
> 100 µM

Give the value of TGI reported for the following: Cc1cn(C2CC(N=[N+]=[N-])C(C(=O)O)O2)c(=O)[nH]c1=O (stereo unspecified)
> 100 µM

Answer with reported TGI of O=C(CC(=O)c1cccc([N+](=O)[O-])c1)C(=O)Nc1nc([N+](=O)[O-])cs1
> 100 µM

Look up and report measured TGI for this entry: CN(C)C=Nc1c(Br)cc(Br)c2nonc12
> 100 µM

Specify TGI for N#CC1C(=O)NC2=C(CCOc3c2ccc2ccccc32)C1c1ccc(F)cc1 (stereo unspecified) and stop.
> 100 µM

Consider the molecule Cc1cc2c(=O)c3ccccc3oc2c(C#N)c1C and give its recorded TGI.
> 100 µM
